Reference source: patent US20250129103A1

ASSAY_REMARKS: Determination of logD (1-octanol / phosphate buffer pH 7.4)
Format: physicochemical
RUN_CONDITIONS: 1-octanol/phosphate buffer, pH 7.4, pH 7.4, 1-octanol/phosphate buffer; read-out: Log D, pH 7.4
PROPERTY_MEASURED: logD

# COMPOUND, TEST_RESULT
records = [
    ("CC(C)(O)c1noc(/C=C/C(=O)N2CCN(c3nc(OCC45CCCN4CCC5)nc4c3CCN(c3cccc5cccc(Cl)c35)C4)C[C@@H]2CC#N)n1 [Example 16]", 3.04),
    ("N#CC[C@H]1CN(c2nc(OC[C@@]34CCCN3C[C@H](F)C4)nc3c(F)c(-c4cccc5cccc(Cl)c45)ncc23)CCN1C(=O)/C=C/CN1C[C@H]2COC[C@H]2C1 [Compound 228]", 3.08),
    ("N#CC[C@H]1CN(c2nc(OC[C@@]34CCCN3C[C@H](F)C4)nc3c(F)c(-c4cccc5ccc(F)c(F)c45)ncc23)CCN1C(=O)/C=C/CN1C2COCC1C2 [Compound 224]", 2.96),
]
